System: non-infected CEM-TK− cells
Measurement protocol: Toxic effect on non-infected cells (MTT/formazan), CEM-TK−
Type: cell-based, Human
Condition label: 50% inhibition of formazan formation, 5 days
Property name: CD50

CC(=O)SCCOP(=O)(OCCSC(C)=O)OC[C@@H]1CC[C@H](n2cnc3c(=O)[nH]cnc32)O1 [Bis(SATE)ddIMP]
(CD50 > 10^−4 M)
CC(=O)SCCOP(=O)(OCCSC(C)=O)OC[C@@H]1CC[C@H](n2cc(C)c(=O)[nH]c2=O)O1 [Bis(SATE)ddTMP]
(CD50 > 10^−4 M)

----------
Test system: non-infected CEM-TK− cells
Measurement protocol: Toxic effect on non-infected cells (MTT/formazan), CEM-TK−
Type: cell-based, Human
Condition label: 50% inhibition of formazan formation, 5 days
Property name: CD50

O=c1[nH]cnc2c1ncn2[C@H]1CC[C@@H](CO)O1 [ddI, reference compound]
(CD50 > 10^−4 M)
Cc1cn([C@H]2C[C@H](N=[N+]=[N-])[C@@H](CO)O2)c(=O)[nH]c1=O [AZT, 3′-azido-2′,3,-dideoxythymidine, reference compound]
(CD50 > 10^−4 M)
Nc1ncnc2c1ncn2[C@H]1CC[C@@H](CO)O1 [ddA, reference compound]
(CD50 > 10^−4 M)

----------
System: HIV-1 (LAI isolate)
Measurement protocol: Anti-HIV-1 activity (RTase in culture supernatant) in CEM-TK− cells
Assay type: cell-based
Condition label: CEM-TK− cells, lowest concentration reducing RTase production by at least 50%, 5 days; read-out: ED50 (the source's name)
pEC50 for assorted compounds
Quick note: pEC50 means taking -log10 of the concentration in moles per liter.

Some solved entries appear below for comparison.
O=c1ccn([C@H]2CC[C@@H](COP(=O)(OCCSSCCO)OCCSSCCO)O2)c(=O)[nH]1 [Compound 2]
5.10
CC(=O)SCCOP(=O)(OCCSC(C)=O)OC[C@@H]1CC[C@H](n2ccc(=O)[nH]c2=O)O1 [Compound 1]
5.40
Cc1cn([C@H]2C[C@H](N=[N+]=[N-])[C@@H](COP(=O)(OCCSSCCO)OCCSSCCO)O2)c(=O)[nH]c1=O [Compound 3]
5.15

Then this compound:
// pEC50 value for Nc1ncnc2c1ncn2CCOCP(=O)(OCCSSCCO)OCCSSCCO [Compound 4] : 7.10

----------
Tested on: HIV-1
Measurement protocol: Anti-HIV-1 activity in MT-4 cells
Format: cell-based, Human immunodeficiency virus
Condition label: read-out: ED50 (the source's name)
Property name: EC50 (nM)
// note: answer is a bare numeric in nM

Nc1ncnc2c1ncn2[C@H]1CC[C@@H](CO)O1 [ddA, reference compound]
10000
Nc1ncnc2c1ncn2CCOCP(=O)(OCCSSCCO)OCCSSCCO
800

Let's switch to this compound now.
Record summary for Cc1cn([C@H]2C[C@H](N=[N+]=[N-])[C@@H](COP(=O)(OCCSSCCO)OCCSSCCO)O2)c(=O)[nH]c1=O : reported EC50 = 1
